Kindly state pIC50 for each of the entries shown.
experimental.system: AXL (Homo sapiens)
Sequence (P30530 26-894): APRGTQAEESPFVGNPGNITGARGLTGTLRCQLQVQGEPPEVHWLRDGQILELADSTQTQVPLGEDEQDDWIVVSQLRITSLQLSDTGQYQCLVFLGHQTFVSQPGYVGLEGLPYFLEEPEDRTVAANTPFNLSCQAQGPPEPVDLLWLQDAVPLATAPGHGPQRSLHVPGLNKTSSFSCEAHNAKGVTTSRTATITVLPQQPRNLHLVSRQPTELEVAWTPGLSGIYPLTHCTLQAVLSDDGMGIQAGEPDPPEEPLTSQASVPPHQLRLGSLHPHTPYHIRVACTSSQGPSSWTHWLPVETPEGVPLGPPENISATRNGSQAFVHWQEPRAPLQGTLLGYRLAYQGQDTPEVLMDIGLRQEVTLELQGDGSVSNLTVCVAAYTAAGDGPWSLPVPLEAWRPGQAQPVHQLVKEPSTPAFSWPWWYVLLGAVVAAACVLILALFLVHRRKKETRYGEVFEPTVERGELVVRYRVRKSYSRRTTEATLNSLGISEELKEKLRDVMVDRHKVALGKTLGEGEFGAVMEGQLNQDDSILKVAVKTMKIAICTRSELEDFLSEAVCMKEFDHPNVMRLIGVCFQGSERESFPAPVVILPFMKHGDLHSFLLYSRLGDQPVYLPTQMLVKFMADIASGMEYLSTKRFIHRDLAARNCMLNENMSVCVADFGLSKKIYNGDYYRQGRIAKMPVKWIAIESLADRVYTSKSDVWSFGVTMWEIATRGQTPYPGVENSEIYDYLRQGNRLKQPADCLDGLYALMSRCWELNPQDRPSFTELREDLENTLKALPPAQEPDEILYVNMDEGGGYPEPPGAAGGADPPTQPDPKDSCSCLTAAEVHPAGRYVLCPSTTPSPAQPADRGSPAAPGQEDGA
pIC50: −log10 of the molar value.

[Q] Name the recorded pIC50 for CC(CC(F)F)Nc1ncc2c(-c3ccc(CN4CCN(C)CC4)cc3)cc(C3CCC(O)CC3)n2n1 (stereo not shown) [Compound 352] .
[A] ≥ 7.00

[Q] Name the recorded pIC50 for COC[C@H](C)Nc1ncc2c(-c3ccnc(OC4CCN(C)CC4)c3)cc([C@H]3CC[C@H](O)CC3)n2n1 [Compound 342] .
[A] ≥ 7.00

[Q] Name the recorded pIC50 for COC[C@H](C)Nc1ncc2c(-c3ccc4c(c3)CNC4=O)cc([C@H]3CC[C@H](O)CC3)n2n1 [Compound 252] .
[A] 6.00 to 7.00

[Q] Name the recorded pIC50 for COC[C@H](C)Nc1ncc2c(-c3cnn(CCC#N)c3)cc([C@H]3CC[C@H](O)CC3)n2n1 [Compound 222] .
[A] ≥ 7.00

[Q] Name the recorded pIC50 for COC[C@H](C)Nc1ncc2c(-c3ccc([S@](C)(=N)=O)nc3)cc([C@H]3CC[C@H](O)CC3)n2n1 [Compound 532] .
[A] ≥ 7.00

[Q] Name the recorded pIC50 for COC[C@H](C)Nc1ncc2c(-c3cnn([C@@H]4CCN(C)C4=O)c3)cc([C@H]3CC[C@H](O)CC3)n2n1 [Compound 471] .
[A] ≥ 7.00

[Q] Name the recorded pIC50 for CCS(=O)(=O)N1CC(CC#N)(n2cc(-c3cc([C@H]4CC[C@H](O)CC4)n4nc(N[C@@H](C)COC)ncc34)cn2)C1 [Compound 567] .
[A] ≥ 7.00

Numbers sourced from patent US11040981B2.
